These data points were gathered from ChEMBL document CHEMBL5360534.

assay: Inhibition of alpha-glucosidase (unknown origin); parameters: species or system Homo sapiens
Mark Criterion met for IC50 under 8000 nM, Criterion not met if at or over.

[[record]]
compound = "CCOC(=O)C1=C(C)NC2=C(C(=O)CC(C)(C)C2)C1c1cc(OC)c(OC)cc1Br (stereo unspecified)"
class_label = "Criterion met"

[[record]]
compound = "CCOC(=O)c1c(-c2ccc(/C=C3/SC(=S)NC3=O)cc2)c2ccccc2n1Cc1ccc(Cl)cc1"
class_label = "Criterion met"

[[record]]
compound = "CCOC(=O)c1c(-c2ccc(/C=C3/SC(=O)NC3=O)cc2)c2ccccc2n1Cc1ccc(Cl)cc1"
class_label = "Criterion met"

[[record]]
compound = "O=[N+]([O-])c1ccccc1/C(CSc1nnc2c(n1)[nH]c1ccccc12)=N\\c1nnc(-c2cccc(O)c2)s1"
class_label = "Criterion met"

[[record]]
compound = "CCOC(=O)c1c(-c2ccc(/C=C3/SC(=S)NC3=O)cc2)c2ccccc2n1Cc1ccccc1"
class_label = "Criterion met"


Does this compound meet the criterion IC50 < 8000 nM? Nc1nnc(-c2cccc3cccc(O)c23)o1
Criterion met

Quick check: does OCCN1C[C@H](O)[C@@H](O)[C@H](O)[C@H]1CO have IC50 under 8000 nM?
Criterion met

For this compound, is IC50 lower than 8000 nM? Cc1cccc(-n2c(-c3ccc(Cl)cc3)cc(C(=O)Nc3ccncc3)c2C)c1
Criterion not met

Consider the compound CCn1cc(C(=O)OCc2ccccc2Br)c(=O)c2cc(F)c(N3CCN(Cc4ccccc4Br)CC3)nc21 . Is its IC50 strictly less than 8000 nM?
Criterion not met

Problem: For the compound Cc1ccc(-c2cc(C(F)(F)F)nn2-c2ccc(S(=O)(=O)NC(=O)c3ccc(C)c([N+](=O)[O-])c3)cc2)cc1 , is IC50 under 8000 nM?
Criterion not met

----------
assay: Inhibition of alpha-glucosidase (unknown origin); design: species or system Homo sapiens
assay.metric: pIC50
In textbook form, pIC50 equals minus log to base ten of the concentration in mol/L.

[[record]]
compound = "C[C@H]1O[C@H](O[C@H]2[C@H](O)[C@@H](O)[C@@H](O[C@H]3[C@H](O)[C@@H](O)C(O)O[C@@H]3CO)O[C@@H]2CO)[C@H](O)[C@@H](O)[C@@H]1N[C@H]1C=C(CO)[C@@H](O)[C@H](O)[C@H]1O (stereo partly drawn) [ACARBOSE]"
assay_metric = "pIC50"
numeric_result = 5.68

[[record]]
compound = "O=C(CSc1nc2ccccc2c(=O)n1-c1cccc(Br)c1)c1ccc([N+](=O)[O-])cc1"
assay_metric = "pIC50"
numeric_result = 4.07

[[record]]
compound = "OC[C@H]1CC2C(N=NN2c2ccccc2)[C@@H](O)C1O (stereo partly drawn)"
assay_metric = "pIC50"
numeric_result = 4.13

[[record]]
compound = "COc1ccc(-n2c(SCC(=O)N/N=C/c3ccc(Cl)cc3)nc3ccccc3c2=O)cc1"
assay_metric = "pIC50"
numeric_result = 3.21

[[record]]
compound = "CCOP(=O)(OCC)C(Nc1ccc(C(F)(F)F)cc1I)c1cc(OC)c(O)c(OC)c1 (stereo not drawn)"
assay_metric = "pIC50"
numeric_result = 4.02

[[record]]
compound = "O=C1C(=O)N(Cc2cn(CN3C(=O)S/C(=C\\c4ccco4)C3=O)nn2)c2ccccc21"
assay_metric = "pIC50"
numeric_result = 4.61


Given the compound COc1cccc(/C=C/c2nc(-c3ccccc3)c3cc(Cl)ccc3n2)c1OS(=O)(=O)c1ccc([N+](=O)[O-])cc1 , write its reported pIC50.
4.55

Consider the compound CCOC(=O)CN1C(=O)/C(=N\NC(=O)c2ccccc2Cl)c2ccccc21 and give its recorded pIC50.
4.88

Tell us which pIC50 value is on record for OCCSc1nnc(COc2ccccc2)n1/N=C/c1ccc(O)cc1
5.83

Answer with reported pIC50 of CC(C)Cc1ccc(C(C)c2nnc(SC/C(=N\c3ccc(Cl)c(Cl)c3)c3ccccc3)o2)cc1 (stereo not drawn)
5.52

Fill in reported pIC50 for this entry: OC[C@H]1NC[C@H](O)[C@@H](O)[C@@H]1O [DUVOGLUSTAT]
3.37

Let me know recorded pIC50 for Cc1ccoc1-c1cccc(/C=N/NC(=O)c2ccc(-c3cc(=O)c4cc(O)ccc4o3)cc2)c1 , thanks.
5.99

Please look at this compound and report its pIC50: Cc1ccc(NS(=O)(=O)c2ccc(-n3nnc4ccccc4c3=O)cc2)cc1C
4.53

Note pIC50 for the compound shown: Nc1ccc2c(-c3nc4ccc(Br)c(O)c4s3)cc(=O)oc2c1
5.20

Give a short answer stating reported pIC50 for Oc1c(Cl)cc(Cl)cc1/C=N/c1nc(-c2ccc(-c3ccccc3)cc2)cs1 .
6.30

Specify reported pIC50 for the compound shown: COc1ccc(/C=N/n2c(COc3ccccc3)nnc2SCCO)cc1
5.83

In one line, give reported pIC50 of the entry O=C(CC(c1cc(Cl)ccc1Cl)c1c[nH]c2ccccc12)c1ccccc1 (stereo not drawn) .
5.37

Provide only the value of recorded pIC50 for CCOC(=O)c1c(-c2ccc(/C=C3/SC(=O)NC3=O)cc2)c2ccccc2n1Cc1ccccc1
5.28
